Please provide measured normalized growth for the entries that follow.
Test Name: chemical genetic growth profiling, strain panel (AID 1159580);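 further: tested at 20 µM; growth read once vehicle control cultures reached saturation at 30 °C; 1 = growth at the plate median or of vehicle wells; lower values mean less growth of the strain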
Assay Context: S. cerevisiae deletion strains, growth OD, locus YEL003W, strain gim4, active compounds read low
Screen size: about 5,500 compounds; about 2,000 (36%) were called active. Not shown: some 18% with an inconclusive outcome. Some of the results follow.
Just the number, please, no unit attached.

Query block: // query normalized growth value for entry CC(=O)O[C@H]1CC[C@]2(C)C3CC(=O)[C@]4(C)C(C(C)=O)=CCC4C3CC[C@H]2C1 (stereo partly drawn)
Result block: 0.996

Query block: // query normalized growth value for entry CC(=O)OC1CCC2(C)C3CC(=O)C4(C)C(CC5OC6(CCC(C)CO6)[C@@H](C)C54)C3CC[C@H]2C1 (stereo partly drawn)
Result block: 0.986

Query block: // query normalized growth value for entry O=C(O)c1cc(=O)c2c(Cl)cc(Cl)cc2[nH]1
Result block: 1.01

Query block: // query normalized growth value for entry CN(C)C(=N)N=C(N)N
Result block: 0.985

Query block: // query normalized growth value for entry O=C(O)[C@H](O)[C@@](O)(Cc1ccc(O)cc1)C(=O)O
Result block: 0.999

Query block: // query normalized growth value for entry CCCCCCCCCCCCCCCCCCOCC(O)CO (stereo not drawn)
Result block: 0.998

Query block: // query normalized growth value for entry CC(=O)OC[C@H]1O[C@@H](Oc2cc(OC(C)=O)c3c(=O)cc(-c4ccc(OC(C)=O)cc4)oc3c2)[C@H](OC(C)=O)[C@@H](OC(C)=O)[C@@H]1OC(C)=O
Result block: 0.979

Query block: // query normalized growth value for entry CC(=O)OCC1=C(C(=O)O)N2C(=O)[C@@H](NC(=O)CCCC(N)C(=O)O)C2SC1 (stereo partly drawn)
Result block: 0.994

###

Test Name: chemical genetic growth profiling, strain panel (AID 1159580)
Assay Context: S. cerevisiae deletion strains, growth OD, locus YLR113W, strain HOG1, active compounds read low
Out of some 5,500 compounds screened, about 2,000 (36%) were called active. Inconclusive results (about 18%) are left out. The list shows a part of the results.
Assay Readout: normalized growth

Query block: // query normalized growth value for entry O=c1[nH]cnc2c1ncn2C1O[C@H](CO)[C@@H](O)[C@H]1O (some centres undefined)
Result block: 0.978 (inactive)

Query block: // query normalized growth value for entry CC(=O)Oc1cccc2c1C(=O)c1c(OC(C)=O)cc(C(=O)O)cc1C2=O
Result block: 1 (inactive)

Query block: // query normalized growth value for entry CN(C)CCc1c[nH]c2ccc(CS(=O)(=O)N3CCCC3)cc12
Result block: 0.979 (inactive)

Query block: // query normalized growth value for entry NC1C[C@H]1c1ccccc1 (some centres undefined)
Result block: 0.981 (inactive)

Query block: // query normalized growth value for entry CN(C)CCc1c[nH]c2ccc(C[C@H]3COC(=O)N3)cc12
Result block: 0.972 (inactive)

Query block: // query normalized growth value for entry CCCc1nc2c(C)cc(-c3nc4ccccc4n3C)cc2n1Cc1ccc(-c2ccccc2C(=O)O)cc1
Result block: 1 (inactive)

Query block: // query normalized growth value for entry CN1C(=O)CCS(=O)(=O)C1c1ccc(Cl)cc1 (centres undefined)
Result block: 0.99 (inactive)

Query block: // query normalized growth value for entry COc1cc2c(cc1O)CCNC2C (centres undefined)
Result block: 0.977 (inactive)

Query block: // query normalized growth value for entry CC(=O)NS(=O)(=O)c1ccc(NC(=O)c2ccccc2C(=O)O)cc1
Result block: 0.976 (inactive)

###

Please provide measured normalized growth for the entries that follow.
Test Name: chemical genetic growth profiling, strain panel (AID 1159580)
Assay Context: S. cerevisiae deletion strains, growth OD, locus YJL095W, strain BCK1 (second series), active compounds read low
Hit rate of the full screen: of about 5,500 compounds, about 2,000 (36%) were called active. About 18% were inconclusive and are not listed. This is one part of the list.
Just the number, please, no unit attached.

Query block: // query normalized growth value for entry CNS(=O)(=O)Cc1ccc2[nH]cc(CCN(C)C)c2c1
Result block: 1.02

Query block: // query normalized growth value for entry COc1c2ccoc2cc2oc(C)cc(=O)c12
Result block: 0.999

Query block: // query normalized growth value for entry COc1ccc2c(=O)ccoc2c1
Result block: 1.02

Query block: // query normalized growth value for entry O=C(CCBr)N1CCN(C(=O)CCBr)CC1
Result block: 1.01

Query block: // query normalized growth value for entry Cc1ccc(N(CC2=NCCN2)c2cccc(O)c2)cc1
Result block: 1.01

###

Please provide measured normalized growth for the entries that follow.
Test Name: chemical genetic growth profiling, strain panel (AID 1159580);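 further: tested at 20 µM; growth read once vehicle control cultures reached saturation at 30 °C; 1 = growth at the plate median or of vehicle wells; lower values mean less growth of the strain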
Assay Context: S. cerevisiae deletion strains, growth OD, locus YLL026W, active compounds read low
About 2,000 (36%) of roughly 5,500 compounds were called active. Roughly 18% stayed inconclusive and do not appear here. Some of the results follow.
Just the number, please, no unit attached.

Query block: // query normalized growth value for entry C1CCC(C(CC2CCCCN2)C2CCCCC2)CC1 (configuration not stated)
Result block: 0.985

Query block: // query normalized growth value for entry CCc1cccc2c3c([nH]c12)C(CC)(CC(=O)O)OCC3 (configuration not stated)
Result block: 0.99

Query block: // query normalized growth value for entry CC(=O)OC1CCC2(C)C3CC(=O)C4(C)C(CC5OC6(CCC(C)CO6)[C@@H](C)C54)C3CC[C@H]2C1 (some centres not stated)
Result block: 0.977

Query block: // query normalized growth value for entry NC1C[C@H]1c1ccccc1 (some centres not stated)
Result block: 0.996

Query block: // query normalized growth value for entry OC(c1cc(C(F)(F)F)nc2c(C(F)(F)F)cccc12)C1CCCCN1 (configuration not stated)
Result block: 1.01

Query block: // query normalized growth value for entry CNS(=O)(=O)c1ccc(NC(=O)c2ccccc2C(=O)O)cc1
Result block: 0.995

Query block: // query normalized growth value for entry CC[C@H]1OC(=O)[C@H](C)[C@@H](O[C@H]2C[C@@](C)(OC)[C@@H](O)[C@H](C)O2)[C@H](C)[C@@H](O[C@@H]2O[C@H](C)C[C@H](N(C)C)[C@H]2O)[C@](C)(O)C[C@@H](C)[C@@H]2N[C@@H](COCCOC)O[C@H]([C@H]2C)[C@]1(C)O
Result block: 0.984

Query block: // query normalized growth value for entry O=C1c2ccccc2C(=O)C1c1ccccc1
Result block: 0.993

Query block: // query normalized growth value for entry CCOc1ccc(C(=O)c2cc(O)c(OC)c(OC)c2O)cc1
Result block: 1.01

Query block: // query normalized growth value for entry CC(=O)Oc1ccccc1C(=O)O
Result block: 0.992

Query block: // query normalized growth value for entry CC(=O)[C@@]1(O)CCC2C3CCC4=CC(=O)CC[C@]4(C)C3CC[C@@]21C (some centres not stated)
Result block: 0.994

Query block: // query normalized growth value for entry CC(=O)CC1CCCCN1 (configuration not stated)
Result block: 1.02

###

Please provide measured normalized growth for the entries that follow.
Test Name: chemical genetic growth profiling, strain panel (AID 1159580);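 further: tested at 20 µM; growth read once vehicle control cultures reached saturation at 30 °C; 1 = growth at the plate median or of vehicle wells; lower values mean less growth of the strain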
Assay Context: S. cerevisiae strains, growth OD, strain wild type, active compounds read low
The campaign covered roughly 5,500 compounds. About 2,000 (36%) were called active. Inconclusive results (about 18%) are left out. The list shows a part of the results.

Query block: // query normalized growth value for entry CC(=O)c1cc2c(cc1O)OC(C)(C)C=C2
Result block: 0.983 (inactive)

Query block: // query normalized growth value for entry CC1(C)C(=O)[C@@H]2O[C@@H]2[C@@]2(C)C1CC(=O)[C@]1(C)C2CC[C@@]2(C)[C@H](c3ccoc3)OC(=O)[C@H]3O[C@]321 (some centres not stated)
Result block: 1.01 (inactive)

Query block: // query normalized growth value for entry Cc1onc(-c2ccccc2)c1C(=O)NC1C(=O)N2[C@@H]1SC(C)(C)[C@@H]2C(=O)O (some centres not stated)
Result block: 1 (inactive)

Query block: // query normalized growth value for entry CC1(C)C=Cc2cc3ccc(=O)oc3cc2O1
Result block: 0.974 (inactive)

Query block: // query normalized growth value for entry CCC(=O)Nc1cc(OC)cc(OC)c1
Result block: 1.02 (inactive)

Query block: // query normalized growth value for entry O=C(O)c1cc(=O)c2cccc(O)c2[nH]1
Result block: 1 (inactive)

Query block: // query normalized growth value for entry COc1cc(NS(=O)(=O)c2ccc(N)cc2)ncn1
Result block: 0.981 (inactive)

###

Please provide measured normalized growth for the entries that follow.
Test Name: chemical genetic growth profiling, strain panel (AID 1159580);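 further: tested at 20 µM; growth read once vehicle control cultures reached saturation at 30 °C; 1 = growth at the plate median or of vehicle wells; lower values mean less growth of the strain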
Assay Context: S. cerevisiae deletion strains, growth OD, locus YER155C, strain BEM2 (second series), active compounds read low
About 2,000 (36%) of roughly 5,500 compounds were called active. Roughly 18% stayed inconclusive and do not appear here. The list shows a part of the results.

Query block: // query normalized growth value for entry CCOC([O-])=Nc1c[n+](N2CCOCC2)no1
Result block: 0.984 (inactive)

Query block: // query normalized growth value for entry COC(=O)C[C@H]1C(C)(C)[C@@H](O)[C@@H]2CC3=C4C=C(OC)O[C@@H](c5ccoc5)[C@]4(C)CCC3[C@@]1(C)C2=O (some centres undefined)
Result block: 1.02 (inactive)

Query block: // query normalized growth value for entry O=c1[nH]cnc2c1ncn2C1O[C@H](CO)[C@@H](O)[C@H]1O (some centres undefined)
Result block: 0.939 (inactive)

Query block: // query normalized growth value for entry COc1cc2c(cc1O)CCNC2C (centres undefined)
Result block: 0.94 (inactive)
